# tested_on: EHMT2 (Homo sapiens, UniProt Q96KQ7)
# Construct: host or cells: MDA-MB-231
# Sequence (Q96KQ7 1-1210): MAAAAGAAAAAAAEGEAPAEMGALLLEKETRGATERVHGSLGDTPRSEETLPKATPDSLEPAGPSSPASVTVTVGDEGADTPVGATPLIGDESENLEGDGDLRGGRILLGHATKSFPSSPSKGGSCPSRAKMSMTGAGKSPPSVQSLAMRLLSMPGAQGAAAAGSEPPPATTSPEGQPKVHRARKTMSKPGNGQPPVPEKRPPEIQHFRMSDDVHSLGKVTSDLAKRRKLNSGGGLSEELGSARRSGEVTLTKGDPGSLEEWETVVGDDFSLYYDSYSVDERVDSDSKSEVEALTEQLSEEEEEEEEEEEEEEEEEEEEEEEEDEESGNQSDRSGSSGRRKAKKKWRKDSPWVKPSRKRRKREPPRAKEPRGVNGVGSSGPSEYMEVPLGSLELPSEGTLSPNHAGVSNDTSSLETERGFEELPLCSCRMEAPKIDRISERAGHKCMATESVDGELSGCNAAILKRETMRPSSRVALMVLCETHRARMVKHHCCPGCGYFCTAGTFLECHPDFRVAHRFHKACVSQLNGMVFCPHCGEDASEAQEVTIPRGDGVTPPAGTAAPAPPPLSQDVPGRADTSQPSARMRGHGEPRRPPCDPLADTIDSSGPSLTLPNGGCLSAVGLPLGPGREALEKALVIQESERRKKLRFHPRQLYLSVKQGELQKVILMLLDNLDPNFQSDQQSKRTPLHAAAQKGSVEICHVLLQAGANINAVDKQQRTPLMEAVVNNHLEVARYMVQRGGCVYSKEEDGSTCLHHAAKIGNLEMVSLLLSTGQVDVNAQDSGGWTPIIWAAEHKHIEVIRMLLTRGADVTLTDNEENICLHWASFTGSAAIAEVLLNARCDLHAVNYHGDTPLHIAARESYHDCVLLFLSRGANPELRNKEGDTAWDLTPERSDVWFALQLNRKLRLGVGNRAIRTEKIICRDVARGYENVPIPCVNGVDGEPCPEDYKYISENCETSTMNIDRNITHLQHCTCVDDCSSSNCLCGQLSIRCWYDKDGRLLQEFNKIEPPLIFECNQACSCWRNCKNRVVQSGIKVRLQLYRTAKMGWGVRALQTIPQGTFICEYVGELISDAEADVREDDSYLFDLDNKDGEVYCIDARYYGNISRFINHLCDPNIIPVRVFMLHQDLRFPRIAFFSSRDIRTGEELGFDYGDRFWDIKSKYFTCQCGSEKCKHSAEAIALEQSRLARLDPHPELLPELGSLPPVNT
# experimental_details: MDA-MB-231 H3K9me2 in-cell Western assay (EHMT2 ICW)
# Assay type: cell-based
# experimental_context: Table VI; read-out: EHMT2 ICW IC50
assay_readout: IC50

>>> experimental_value("COc1cc2c(C3CCN(CC(F)(F)F)CC3)cc(C)nc2cc1OCCCN1CCCC1 [Compound 837]")
"1000 to 10000 nM"
>>> experimental_value("CNc1ccnc(Nc2ccc(OC)c(OC[C@H](O)CN3CCC3)c2)n1 [Compound 908]")
"100 to 1000 nM"
>>> experimental_value("CNC[C@H](COc1cc(Nc2nccc(NC)n2)ccc1OC)OC [Compound 921]")
"> 10000 nM"
>>> experimental_value("CNc1cc(C2CCOCC2)c2cc(OC)c(OCCCN3CC(O)C3)cc2n1 [Compound 902]")
"100 to 1000 nM"
>>> experimental_value("CNc1ccnc(Nc2cnc(OC)c(OC[C@@H]3CCN(C4CCC4)C3)n2)n1 [Compound 974]")
"100 to 1000 nM"
>>> experimental_value("COCCN1CCC(c2cc(C)nc3cc(OCCCN4CCCC4)c(OC)cc23)CC1 [Compound 682]")
"100 to 1000 nM"
>>> experimental_value("CCNc1cc(C2CCOCC2)c2cc(OC)c(OCCCN3CCCC3)cc2n1 [Compound 865]")
"100 to 1000 nM"
>>> experimental_value("CNCCCOc1cc(Nc2nccc(NC)n2)cnc1OC [Compound 917]")
"1000 to 10000 nM"
>>> experimental_value("CNCCNCc1cc(Nc2nccc(NC)n2)ccc1OC [Compound 1034]")
"1000 to 10000 nM"
>>> experimental_value("CNc1cc(C)nc(Nc2ccc(OC)c(CN[C@H]3CCNC3)c2)n1 [Compound 813]")
"> 10000 nM"
>>> experimental_value("CCN1CC([C@@H](C)Oc2cc(Nc3nc(C)cc(NC)n3)ccc2OC)C1 [Compound 687]")
"1000 to 10000 nM"
>>> experimental_value("CNCCCOc1cc(Nc2nccc(NC)n2)ccc1OC [Compound 916]")
"1000 to 10000 nM"
>>> experimental_value("COc1cc2c(C3CCOCC3)cc(-c3cn[nH]c3)nc2cc1OCCCN1CCCC1 [Compound 679]")
"1000 to 10000 nM"
>>> experimental_value("CNc1cc(C#CCN2CCOCC2)cc2cc(OCCCN3CCCC3)c(OC)cc12 [Compound 784]")
"> 10000 nM"
>>> experimental_value("COc1cc2c(C3CCN(C)CC3)cc(C)nc2cc1OCCCN1CC[C@H](F)C1 [Compound 741]")
"1000 to 10000 nM"
>>> experimental_value("CNc1cc(C2CCN(CC(F)(F)F)CC2)c2cc(OC)c(OCCCN3CCCC3)cc2n1 [Compound 833]")
"100 to 1000 nM"
>>> experimental_value("CNc1cc(C2CCN(CCC(F)(F)F)CC2)c2cc(OC)c(OCCCN3CCCC3)cc2n1 [Compound 832]")
"< 100 nM"
>>> experimental_value("COc1cc(N(C)C2CCN(C)CC2)ncc1OCC1CCNC1 (stereo not drawn) [Compound 1042]")
"> 10000 nM"
